Experiment: Pharmacokinetic study of Example 3 in mouse (IV, IP)
Type: in vivo, C57 Mouse
Details: C57, mouse, plasma, intraperitoneal, 30 mg/kg, 30 mg/kg IP; 0.50 h; individual animals 201M-203M; read-out: Plasma concentrations
QUANTITY NAME: concentration at 0.5 h (ng/mL)
# number only, unit ng/mL dropped from output

Form: molecule = Cc1ccc(Nc2nc(N/N=C/c3c[nH]c4ccccc34)cc(N3CCOCC3)n2)cc1 ; concentration at 0.5 h = 2270

###

Experiment: Pharmacokinetic study of Example 1 in mouse (IV, IP, PO)
Format: in vivo, Male C57BL/6 Mouse
Conditions: male, C57BL/6, mouse, plasma, po, 30 mg/kg, PO 30 mg/kg; individual mice M7-M9; read-out: Cmax
QUANTITY NAME: Cmax
Answer with the value and then the unit.

Noted for Cc1ccc(Nc2nc(N/N=C/c3c[nH]c4ccccc34)nc(N3CCOCC3)n2)cc1 : its Cmax reads 167 ng/mL

###

Experiment: Pharmacokinetic study of Example 3 in mouse (IV, IP)
Type: in vivo, C57 Mouse
Settings: C57, mouse, plasma, iv, 5 mg/kg, 5 mg/kg IV; individual animals 101M-103M
QUANTITY NAME: MRT last (min)
// units = min; emit number, no label

Lookup result for Cc1ccc(Nc2nc(N/N=C/c3c[nH]c4ccccc34)cc(N3CCOCC3)n2)cc1 ; measured MRT last: 37.8

###

Assay: Pharmacokinetic study of Example 1 in mouse (IV, IP, PO)
Assay type: in vivo, Male C57BL/6 Mouse
Conditions: male, C57BL/6, mouse, plasma, iv, 5 mg/kg, IV 5 mg/kg; 6.00 h; mean
QUANTITY NAME: concentration at 6 h (ng/mL)
Write the value in ng/mL as a bare number.

// Cc1ccc(Nc2nc(N/N=C/c3c[nH]c4ccccc34)nc(N3CCOCC3)n2)cc1 [Example 1] : concentration at 6 h value = 4.2

###

Experiment: Pharmacokinetic study of Example 3 in mouse (IV, IP)
Assay type: in vivo, C57 Mouse
Settings: C57, mouse, plasma, intraperitoneal, 30 mg/kg, 30 mg/kg IP; 4.00 h; mean; read-out: Plasma concentrations
QUANTITY NAME: concentration at 4 h (ng/mL)
Supply the numeric figure in ng/mL, leaving out any unit text.

Reported concentration at 4 h of Cc1ccc(Nc2nc(N/N=C/c3c[nH]c4ccccc34)cc(N3CCOCC3)n2)cc1 [Example 3] : 1890

###

Assay: Pharmacokinetic study of Example 3 in mouse (IV, IP)
Type: in vivo, C57 Mouse
Details: C57, mouse, plasma, intraperitoneal, 30 mg/kg, 30 mg/kg IP; 1.00 h; individual animals 201M-203M; read-out: Plasma concentrations
QUANTITY NAME: concentration at 1 h
Write the numeric value and append its unit.

Record Cc1ccc(Nc2nc(N/N=C/c3c[nH]c4ccccc34)cc(N3CCOCC3)n2)cc1 [Example 3] , field concentration at 1 h: 2990 ng/mL

###

Test: Pharmacokinetic study of Example 3 in mouse (IV, IP)
Format: in vivo, C57 Mouse
Settings: C57, mouse, plasma, ip, 30 mg/kg, 30 mg/kg IP; individual animals 201M-203M; read-out: HL_Lambda_z (T1/2, h) (converted)
QUANTITY NAME: half-life (h)
Could you give me the number in h? Just the number is fine.

// half-life lookup, compound = Cc1ccc(Nc2nc(N/N=C/c3c[nH]c4ccccc34)cc(N3CCOCC3)n2)cc1 , result: 5.29
